Origin of values: the supplement of paper PMC10567573

B1: LOC100129726 (parent)
chain: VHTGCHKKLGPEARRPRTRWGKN

- Variants of: B1
- measurement description: protein stability index of a GFP-peptide fusion (GPS, HEK-293T) (PSI 1-6); higher = more stable;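 also: lentivirally expressed fusions sorted by FACS into six bins by GFP to DsRed ratio, PSI derived from sequencing read proportions per bin multiplied by bin number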
- test settings: c terminus: native
Think of 3 as a floor: if protein stability index stands on it or above, it is 1.0; beneath it, 0.0.

Example cases with answers are listed next.
[
  {
    "mutation descriptor": "T18S",
    "category": 0.0
  },
  {
    "mutation descriptor": "R14F",
    "category": 0.0
  },
  {
    "mutation descriptor": "R19E",
    "category": 1.0
  },
  {
    "mutation descriptor": "H6P",
    "category": 0.0
  }
]

Determine whether measured protein stability index meets or exceeds 3 for L9V
0.0

Determine whether measured protein stability index meets or exceeds 3 for R15I
0.0

Determine whether measured protein stability index meets or exceeds 3 for R17T
0.0

Determine whether measured protein stability index meets or exceeds 3 for A13F
0.0

Determine whether measured protein stability index meets or exceeds 3 for T18E
1.0
